Biological target: biotinylated CD59 (Homo sapiens)
Construct: Recombinant soluble human CD59 with an additional C-terminal cysteine residue
Sequence (P13987 26-102 limits assumed): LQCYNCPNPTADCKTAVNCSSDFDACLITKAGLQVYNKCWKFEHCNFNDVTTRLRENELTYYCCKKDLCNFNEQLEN
Assay: mRNA-display cyclic peptide screen against CD59-biotin, NGS abundance after 6th selection round
Settings: counts normalised by total counts of sample Seq II; percentage of the pool, sheet R6
# reported Percentage Seq II; entries follow
Output spec: scalar in %, unitless text.

Before answering, review these 10 worked examples.
Req: Report Percentage Seq II for LKPNGRCLPKV please.
Resp: 0.283

Req: Also need AVHGSSFYVWG , thanks.
Resp: 0.039

Req: Also need CFSRRLTAGAI , thanks.
Resp: 2.091

Req: Also need VASGGRYWSRA , thanks.
Resp: 0.139

Req: Also need SAWGSRQIQYY , thanks.
Resp: 0.051

Req: Also need CFAGRLTVDAV , thanks.
Resp: 0.030

Req: Also need HVFGNRFFTRG , thanks.
Resp: 0.039

Req: Also need YGASPTSLCSGI , thanks.
Resp: 0.186

Req: Also need HCWVRGSRNYT , thanks.
Resp: 2.548

Req: Also need CFAHRITDPNTQ , thanks.
Resp: 0.014

More entries:
Req: Report Percentage Seq II for HCWVRGGRNYT please.
Resp: 0.014

Req: Also need HVLGNRSFTRG , thanks.
Resp: 0.084

Req: Also need CFRNRVLEITST , thanks.
Resp: 0.032

Req: Also need WTCHLRHDGPHA , thanks.
Resp: 2.114

Req: Also need WATGSATFSSG , thanks.
Resp: 0.673

Req: Also need YCWVRGSRNYT , thanks.
Resp: 0.060

Req: Also need CYGGQTFIYAWS , thanks.
Resp: 0.030
